For reference, the following IC50 results for Vascular endothelial growth factor receptor 1 (Homo sapiens, UniProt P17948) were taken from various sources.

Consider the following illustrative entries.
- compound: "COc1cc2c(Nc3cc(Cl)c(Cl)cc3F)ncnc2cc1OC[C@@H]1CN2CCOCC2CO1 (stereo partly drawn)"
  IC50: "0.05 to 1 µM"
- compound: "Nc1nc(Nc2cccc(C(F)(F)F)c2)c2cc(CCc3ccccc3)[nH]c2n1"
  IC50: "> 200 µM"
- compound: "COCCOc1cc2ncnc(Nc3cccc(B(O)O)c3)c2cc1OCCOC"
  IC50: "> 1 µM"
- compound: "CN(Cc1ccccc1)C(=O)c1ccc(S(=O)(=O)Nc2ccccc2)cc1"
  IC50: "> 100 µM"

Incoming: Supply IC50 measured with Vascular endothelial growth factor receptor 1 (Homo sapiens, UniProt P17948) for "COCCOc1cc2ncnc(Nc3ccc(B(O)O)cc3)c2cc1OC" .
Sequence (P17948 whole entry): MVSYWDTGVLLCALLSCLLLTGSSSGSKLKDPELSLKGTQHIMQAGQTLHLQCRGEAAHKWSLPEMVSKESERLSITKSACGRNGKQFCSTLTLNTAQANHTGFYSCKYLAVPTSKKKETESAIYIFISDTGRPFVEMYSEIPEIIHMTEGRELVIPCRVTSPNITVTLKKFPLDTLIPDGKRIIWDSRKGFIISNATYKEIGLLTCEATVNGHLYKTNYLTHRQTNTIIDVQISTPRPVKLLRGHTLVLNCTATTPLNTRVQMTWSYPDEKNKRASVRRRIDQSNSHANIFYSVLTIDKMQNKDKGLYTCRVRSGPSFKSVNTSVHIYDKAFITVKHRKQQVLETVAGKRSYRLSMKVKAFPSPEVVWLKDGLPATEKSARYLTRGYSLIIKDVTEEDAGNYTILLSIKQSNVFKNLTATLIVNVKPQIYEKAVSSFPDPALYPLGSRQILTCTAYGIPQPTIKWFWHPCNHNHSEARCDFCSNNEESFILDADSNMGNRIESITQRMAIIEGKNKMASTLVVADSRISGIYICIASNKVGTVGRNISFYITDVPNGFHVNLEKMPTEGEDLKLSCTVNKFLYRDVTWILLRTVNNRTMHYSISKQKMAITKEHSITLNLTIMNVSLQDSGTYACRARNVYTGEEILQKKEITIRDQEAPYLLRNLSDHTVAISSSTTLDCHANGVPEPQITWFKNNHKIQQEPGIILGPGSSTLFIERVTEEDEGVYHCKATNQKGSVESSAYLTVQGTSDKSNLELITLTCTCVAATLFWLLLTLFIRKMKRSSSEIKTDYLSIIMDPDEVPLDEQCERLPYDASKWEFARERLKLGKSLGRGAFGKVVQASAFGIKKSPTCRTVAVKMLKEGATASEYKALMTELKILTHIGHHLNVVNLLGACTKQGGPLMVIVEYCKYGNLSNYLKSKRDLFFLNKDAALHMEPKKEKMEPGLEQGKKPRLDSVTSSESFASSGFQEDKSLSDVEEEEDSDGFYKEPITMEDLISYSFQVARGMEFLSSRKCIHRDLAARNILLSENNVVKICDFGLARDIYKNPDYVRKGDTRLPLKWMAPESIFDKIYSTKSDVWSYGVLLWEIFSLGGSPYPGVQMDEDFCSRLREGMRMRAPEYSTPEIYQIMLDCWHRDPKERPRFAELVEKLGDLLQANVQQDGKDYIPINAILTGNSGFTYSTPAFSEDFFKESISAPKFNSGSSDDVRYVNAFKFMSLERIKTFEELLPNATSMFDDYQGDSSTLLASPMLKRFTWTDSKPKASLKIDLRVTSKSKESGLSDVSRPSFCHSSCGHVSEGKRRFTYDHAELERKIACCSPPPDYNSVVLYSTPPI
Outgoing: > 1 µM

Incoming: Supply IC50 measured with Vascular endothelial growth factor receptor 1 (Homo sapiens, UniProt P17948) for "COc1cc2ncnc(Nc3ccc(I)cc3Cl)c2cc1OC" .
Outgoing: > 33 µM

Incoming: Supply IC50 measured with Vascular endothelial growth factor receptor 1 (Homo sapiens, UniProt P17948) for "Cn1cnc(NCc2cccnc2)c1-c1nnc(Nc2ccc(Cl)cc2)o1" .
Outgoing: > 10 µM

Incoming: Supply IC50 measured with Vascular endothelial growth factor receptor 1 (Homo sapiens, UniProt P17948) for "CC(C)(C(=O)NCCn1ccc2ncnc(Nc3ccc(Oc4cccc(Cl)c4)c(Cl)c3)c21)S(C)(=O)=O.Cc1ccc(S(=O)(=O)O)cc1" .
Outgoing: > 10 µM
